assay: Pharmacokinetics and total colon distribution after single oral administration; type: in vivo, male C57BL/6 mice; conditions: male, C57BL/6, mouse, blood; mice, oral 5 mg/kg, 8 h; measured cpd = dosed cpd (19, 47 as Na salt); read-out: Mean blood concentration
measurement_label: concentration at 8 h (ng/mL)

test_smiles=COc1cc(Nc2cc(Oc3ccc(NC(=O)Nc4cc(C(C)(C)C)cc(NS(C)(=O)=O)c4OC)c4ccccc34)ccn2)cc(OC)c1C(=O)NCCOCCOCCOP(=O)(O)O recorded_result=0

* * *

The following compounds are shown together with reported solubility thermodynamic at 24 h values.
assay: Solubility in fasted-state simulated colonic fluid (FaSSCoF) at pH 6.5; assay type: physicochemical; conditions: 25 °C, pH 6.5, fassgf or other biorelevant, thermodynamic from solid, pH 6.5 FaSSCoF Solubility (mg/mL) Run 4
measurement_label: solubility thermodynamic at 24 h (µg/mL)

test_smiles=COc1cc(Nc2cc(Oc3ccc(NC(=O)Nc4cc(C(C)(C)C)cc(NS(C)(=O)=O)c4OC)c4ccccc34)ccn2)cc(OC)c1C(=O)NCCN1CCN(C)CC1 recorded_result=9
test_smiles=COc1cc(Nc2cc(Oc3ccc(NC(=O)Nc4cc(C(C)(C)C)cc(NS(C)(=O)=O)c4OC)c4ccccc34)ccn2)cc(OC)c1C(=O)NCCN(C)C recorded_result=97
test_smiles=COc1cc(Nc2cc(Oc3ccc(NC(=O)Nc4cc(C(C)(C)C)cc(NS(C)(=O)=O)c4OC)c4ccccc34)ccn2)cc(OC)c1C(=O)NC1CCN(C)CC1 recorded_result=19
test_smiles=COc1cc(Nc2cc(Oc3ccc(NC(=O)Nc4cc(C(C)(C)C)cc(NS(C)(=O)=O)c4OC)c4ccccc34)ccn2)cc(OC)c1C(=O)NCCN1CCN(CCO)CC1 recorded_result=6

These entries and their values trace back to patent US9751837B2.
